Provenance of the data: patent US20170355757A1

molecular target: T1, Human C5 (human, UniProt P01031 19-1676); test: SPR, mAb captured by anti-hFc, 37C
T1 construct: The natural protein has a beta and an alpha chain; also called complement factor 5; complement component 5
quantity_measured: 100 nM Human C5 Bound (RU)
Give bare numbers, in RU.

Examples with answers:
{"binder": "H4H12166P6 (antibody, human IgG4, V domains shown, human IgG4 Fc with S108P hinge mutation) VH: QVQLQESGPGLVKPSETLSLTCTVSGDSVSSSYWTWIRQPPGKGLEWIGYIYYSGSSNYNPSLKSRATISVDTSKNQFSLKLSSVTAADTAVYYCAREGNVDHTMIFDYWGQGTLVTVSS VL: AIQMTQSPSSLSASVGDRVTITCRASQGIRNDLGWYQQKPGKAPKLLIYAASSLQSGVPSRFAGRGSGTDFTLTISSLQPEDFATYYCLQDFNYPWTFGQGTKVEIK", "readout_value": 157}
{"binder": "H4H11686N (antibody, human IgG4, V domains shown, also called H2M11686N) VH: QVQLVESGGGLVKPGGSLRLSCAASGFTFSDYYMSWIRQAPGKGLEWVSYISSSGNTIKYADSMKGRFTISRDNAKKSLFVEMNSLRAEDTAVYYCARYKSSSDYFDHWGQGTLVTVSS VL: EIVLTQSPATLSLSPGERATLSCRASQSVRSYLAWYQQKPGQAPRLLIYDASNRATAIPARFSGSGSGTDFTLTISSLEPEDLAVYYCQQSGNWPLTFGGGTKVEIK", "readout_value": 406}
{"binder": "H4H11683N (antibody, human IgG4, V domains shown, also called H2M11683N) VH: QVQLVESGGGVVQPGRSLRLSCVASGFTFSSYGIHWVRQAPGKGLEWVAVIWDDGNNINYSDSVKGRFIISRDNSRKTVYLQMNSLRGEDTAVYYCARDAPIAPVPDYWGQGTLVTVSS VL: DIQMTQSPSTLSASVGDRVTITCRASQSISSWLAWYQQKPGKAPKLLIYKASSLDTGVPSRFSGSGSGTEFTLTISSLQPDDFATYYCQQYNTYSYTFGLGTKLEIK", "readout_value": 492}

List the reported 100 nM Human C5 Bound (RU) of each binder below.
1. H4H12163P (antibody, human IgG4, V domains shown) VH: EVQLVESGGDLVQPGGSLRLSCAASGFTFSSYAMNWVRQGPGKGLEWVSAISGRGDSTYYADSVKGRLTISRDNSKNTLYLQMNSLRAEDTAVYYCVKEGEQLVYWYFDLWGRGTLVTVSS VL: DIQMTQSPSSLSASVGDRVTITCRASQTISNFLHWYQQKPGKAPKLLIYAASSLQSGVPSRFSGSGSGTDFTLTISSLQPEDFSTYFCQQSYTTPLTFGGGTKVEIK
2. H4H12171P (antibody, human IgG4, V domains shown) VH: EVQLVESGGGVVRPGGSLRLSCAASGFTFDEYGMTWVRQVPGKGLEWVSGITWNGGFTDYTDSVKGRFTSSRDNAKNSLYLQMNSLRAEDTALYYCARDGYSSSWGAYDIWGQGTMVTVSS VL: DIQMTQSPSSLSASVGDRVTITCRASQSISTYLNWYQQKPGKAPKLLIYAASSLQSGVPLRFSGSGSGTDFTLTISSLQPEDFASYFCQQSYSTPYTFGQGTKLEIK

Result:
1. 139
2. 58
